B1: PHTF1 (parent)
chain: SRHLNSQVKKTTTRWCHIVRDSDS

Variants of: B1
ASSAY_NAME: protein stability index of a GFP-peptide fusion (GPS, HEK-293T) (PSI 1-6); higher = more stable;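 also: lentivirally expressed fusions sorted by FACS into six bins by GFP to DsRed ratio, PSI derived from sequencing read proportions per bin multiplied by bin number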
DETAILS: c terminus: a fixed tail appended
Label No if protein stability index falls below 2; label Yes in every other case.

The following variants have reported results that may help.
INSERT INTO measurements (mutant, discrete_label) VALUES
  ('T11Y', 'Yes'),
  ('I18Y', 'No'),
  ('H17S', 'Yes'),
  ('C16S', 'Yes'),
  ('S24L', 'No'),
  ('I18E', 'Yes'),
  ('T12D', 'Yes'),
  ('C16Q', 'Yes'),
  ('T11C', 'Yes'),
  ('T12C', 'Yes');

Does the reported protein stability index for K9T fall at or above the 2 mark?
No

Does the reported protein stability index for K10M fall at or above the 2 mark?
Yes

Does the reported protein stability index for D21R fall at or above the 2 mark?
No

Does the reported protein stability index for R20M fall at or above the 2 mark?
No
